- assay_overview: NCI Yeast Anticancer Drug Screen. Data for the rad50 strain (AID 155);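 further: 0% = growth of vehicle-only cultures of the same strain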
- run_parameters: S. cerevisiae rad50 strain growth inhibition; at 11.0 µM; stronger effect = higher value
The panel holds about 79,000 compounds, 15% with a hit somewhere; the sample as a whole holds those more often. Activity calls are given as the source filed them. No stated cut-off is given here; in the data, active means growth inhibition above about 70%; inactive means the rest.
In this section, each of the molecules is paired with its reported growth inhibition.

Some solved entries appear below for comparison.
{"columns": ["molecule", "growth inhibition"],
 "data": [
  ["COc1ccc(/C=C2\\CCc3ccccc3C2=O)cc1OC", "-1% (inactive)"],
  ["CC(=O)CC[N+](C)(C)C", "-4% (inactive)"],
  ["CCC(C)C(=O)OCC(=O)c1ccc(-c2ccccc2)cc1 (stereo unspecified)", "0% (inactive)"]
]}

Incoming: Which growth inhibition is reported for this molecule? CCc1nc2ccc(N=Nc3c(O)ccc4ccccc34)cc2[nH]1
Outgoing: 8% (inactive)

Incoming: Entry O=C1C(Br)=CC(Br)(Br)C=C1Br please
Outgoing: 30% (inactive)

Incoming: C#CC1=CC(=O)C(OC)=CC1=O ?
Outgoing: 94% (active)

Incoming: And what about the molecule CC(=O)O/N=C/c1c2ccccc2cc2ccccc12 ?
Outgoing: 5% (inactive)
